Data provenance: patent US20170119775A1

ASSAY_COMMENT: Plasma Tmax after oral administration
Assay type: in vivo
ENDPOINT: Tmax (h)

molecule="CCc1nc(C2CCC(C(C)(C)C)CC2)n2nc(-c3ccccc3)[nH]c(=O)c12 (stereo not shown) [AP61]" endpoint=Tmax measured_value=5
